assay_system: kappa opioid receptor (OPRK1) (Homo sapiens (Human))
assay: OPRK1 antagonist assay (b-arrestin-2-TEV / b-lactamase reporter cell line, EC80 U-50488 challenge)
Type: cell-based
assay_conditions: read-out: IC50 nM (% inhib if other than 50%); antagonist mode vs EC80 U-50488; NA = not active at concentrations up to 10 μM
The label YES is reserved for IC50 strictly under 60 nM; NO covers values equal to or above it.

Field: below-cutoff. Rule: recorded IC50 strictly less than 60 nM. Subject: CCc1noc(-c2cc(C)cnc2N2CCC(NC3CCCCC3)C(CO)C2)n1 (centres unmarked)
NO

---

assay_system: kappa opioid receptor (OPRK1) (Homo sapiens (Human), UniProt P41145)
Sequence (P41145 whole entry): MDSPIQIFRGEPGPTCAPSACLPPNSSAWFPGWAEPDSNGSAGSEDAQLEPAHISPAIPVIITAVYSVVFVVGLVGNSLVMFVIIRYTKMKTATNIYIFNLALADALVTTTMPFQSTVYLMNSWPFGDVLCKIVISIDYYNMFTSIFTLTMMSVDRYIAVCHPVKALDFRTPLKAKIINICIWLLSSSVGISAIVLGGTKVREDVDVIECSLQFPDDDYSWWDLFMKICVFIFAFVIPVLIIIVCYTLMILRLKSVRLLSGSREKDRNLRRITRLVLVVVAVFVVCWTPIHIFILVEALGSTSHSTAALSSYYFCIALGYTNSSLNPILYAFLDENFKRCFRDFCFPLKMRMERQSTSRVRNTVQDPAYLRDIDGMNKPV
assay: OPRK1 antagonist assay (b-arrestin-2-TEV / b-lactamase reporter cell line, EC80 U-50488 challenge)
Type: cell-based
assay_conditions: read-out: IC50 nM (% inhib if other than 50%); antagonist mode vs EC80 U-50488; NA = not active at concentrations up to 10 μM
readout_name: IC50 (nM)
Output spec: scalar in nM, unitless text.

{"molecule": "CCOC(=O)c1cc(C#N)c(C)nc1N1CCC(NC2CCCCC2)C(O)C1 (stereo not drawn) [C53]", "readout_name": "IC50", "measured_value": 13000}

Supply measured IC50 of CO[C@H]1CN(c2ncc(C)cc2-c2cnc(C)cn2)CC[C@H]1NC1CCCCC1 [compound 472] in your reply.
105

For the molecule Cc1noc(-c2cc(C(F)(F)F)cnc2N2CC[C@@H](NC3CCCCC3)[C@H](O)C2)n1 [compound 173] , report IC50.
1200

---

assay_system: UniProtKB P41145
assay: OPRK1 antagonist assay (b-arrestin-2-TEV / b-lactamase reporter cell line, EC80 U-50488 challenge)
Type: cell-based
assay_conditions: read-out: IC50 nM (% inhib if other than 50%); antagonist mode vs EC80 U-50488; NA = not active at concentrations up to 10 μM
Listing of recorded IC50 by entry.
Your answer is read as nM, so omit the unit and give the number.

Check out these entries, answers already filled in.
{"molecule": "Cc1cnc(N2CCC(NC3CCOCC3)CC2)c(-c2cnc(C)cn2)c1", "IC50 / nM": 3210}
{"molecule": "Cc1ccc2nc(N3CCC(NC4CCCCC4)C3)c(-c3nc(C)no3)cc2c1 (stereo not shown)", "IC50 / nM": 52}
{"molecule": "Cc1ccc2nc(N3CCC(NC4CCCCC4F)CC3)c(-c3nc(C)no3)cc2c1 (stereo not shown)", "IC50 / nM": 8}
{"molecule": "Cc1cnc(N2CCC(NC3CCCCC3)CC2)c(-c2ccc(C)o2)c1", "IC50 / nM": 116}
{"molecule": "O=C(O)c1cc(Br)cnc1N1CCC(NC2CCCCC2)CC1", "IC50 / nM": 5200}

Tell us which IC50 value is on record for CCOC(=O)c1noc(-c2cc3cc(C)ccc3nc2N2CCC(NC3CCCCC3O)CC2)n1 (stereo not shown)
4360

State, in one line, measured IC50 of COC(=O)c1cc(Br)cnc1N1CCC(NC2CCCC2)C(C(=O)OC)C1 (stereo not shown) [compound 117]
3800

---

assay_system: kappa opioid receptor (OPRK1) (Homo sapiens (Human))
assay: OPRK1 antagonist assay (b-arrestin-2-TEV / b-lactamase reporter cell line, EC80 U-50488 challenge)
Type: cell-based
assay_conditions: read-out: IC50 nM (% inhib if other than 50%); antagonist mode vs EC80 U-50488; NA = not active at concentrations up to 10 μM
We label by threshold. Values of IC50 strictly beneath 60 nM are Criterion met. Values of 60 nM and up are Criterion not met.

{"compound": "Cc1ccc2nc(N3CCC(NC4CCC(F)(F)CC4)CC3)c(-c3nc(C)no3)cc2c1", "class": "Criterion met"}
{"compound": "Cc1noc(-c2cc3ccc(Cl)cc3nc2N2CCC(NCC(C)C)CC2)n1", "class": "Criterion met"}
{"compound": "COC(=O)c1cc(NC(=O)NC(C)C)cnc1N1CCC(NC2CCCCC2)CC1", "class": "Criterion not met"}

Could you please tell me whether IC50 recorded for `CO[C@@H]1CN(c2nnc(C)cc2C(=O)OC(C)C)CC[C@@H]1NC1CCCCC1` is less than 60 nM?
Criterion not met

# strict comparison: is reported IC50 < 60 nM? input = CCCC(C)NC1CCN(c2nc3ccc(C)cc3cc2-c2noc(C)n2)CC1 (stereo not drawn)
Criterion not met

Is it true that IC50 reported for `Cc1ccc2nc(N3CCC(NCC(C)(C)O)CC3)c(-c3nc(C)no3)cc2c1` is less than 60 nM?
Criterion met
